- ASSAY_SYSTEM: Aldehyde dehydrogenase, dimeric NADP-preferring (Homo sapiens, UniProt P30838)
- Sequence (P30838 whole entry): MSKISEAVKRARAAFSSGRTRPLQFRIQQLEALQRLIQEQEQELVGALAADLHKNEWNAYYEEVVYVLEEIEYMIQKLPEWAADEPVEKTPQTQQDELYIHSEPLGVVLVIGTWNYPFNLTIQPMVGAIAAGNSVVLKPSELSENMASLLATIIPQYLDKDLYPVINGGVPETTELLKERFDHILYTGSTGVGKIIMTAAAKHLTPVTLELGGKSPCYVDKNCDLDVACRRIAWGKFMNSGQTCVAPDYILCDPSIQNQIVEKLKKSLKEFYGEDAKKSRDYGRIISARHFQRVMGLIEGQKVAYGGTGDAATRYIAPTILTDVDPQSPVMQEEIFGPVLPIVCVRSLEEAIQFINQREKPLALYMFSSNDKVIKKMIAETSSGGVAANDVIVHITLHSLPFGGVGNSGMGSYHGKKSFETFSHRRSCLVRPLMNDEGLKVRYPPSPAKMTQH
- ASSAY_OVERVIEW: Inhibition of human ALDH3A1 by Lineweaver-Burk plot analysis in presence of NADP+
ATTRIBUTE_MEASURED: Ki (nM)
Answer with a number only, understood to be in nM.

Returns the measured Ki for the input molecule. Input: Cc1cc(Br)c2c(c1)C(=O)C(=O)N2
500

* * *

- ASSAY_SYSTEM: Aldehyde dehydrogenase, mitochondrial (Homo sapiens, UniProt P05091)
- Sequence (P05091 whole entry): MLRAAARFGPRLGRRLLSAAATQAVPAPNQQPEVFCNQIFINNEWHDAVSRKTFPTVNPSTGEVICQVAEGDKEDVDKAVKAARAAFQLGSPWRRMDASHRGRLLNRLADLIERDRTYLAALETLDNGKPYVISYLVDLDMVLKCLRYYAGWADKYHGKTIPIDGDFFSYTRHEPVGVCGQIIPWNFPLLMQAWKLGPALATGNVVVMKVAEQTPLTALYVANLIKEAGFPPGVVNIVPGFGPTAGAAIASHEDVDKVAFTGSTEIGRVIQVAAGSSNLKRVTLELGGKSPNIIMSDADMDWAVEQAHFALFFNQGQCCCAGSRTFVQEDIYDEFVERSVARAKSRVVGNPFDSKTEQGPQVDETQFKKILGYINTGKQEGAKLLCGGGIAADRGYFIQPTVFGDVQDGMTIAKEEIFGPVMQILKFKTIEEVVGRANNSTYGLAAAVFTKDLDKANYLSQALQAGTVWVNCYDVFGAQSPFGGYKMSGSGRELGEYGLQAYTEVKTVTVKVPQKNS
- ASSAY_OVERVIEW: Inhibition of human ALDH2 using propionaldehyde as substrate by Lineweaver-Burk plot analysis
ATTRIBUTE_MEASURED: pKi
// pKi is dimensionless: -log10 of concentration (M)

Returns the measured pKi for the input compound. Input: Cc1cc(Br)c2c(c1)C(=O)C(=O)N2
6.00
